src = paper PMC5429603

Biological target: human URAT1 h-M29L (Homo sapiens, UniProt Q96S37, M29L)
Sequence (Q96S37 whole entry M29L): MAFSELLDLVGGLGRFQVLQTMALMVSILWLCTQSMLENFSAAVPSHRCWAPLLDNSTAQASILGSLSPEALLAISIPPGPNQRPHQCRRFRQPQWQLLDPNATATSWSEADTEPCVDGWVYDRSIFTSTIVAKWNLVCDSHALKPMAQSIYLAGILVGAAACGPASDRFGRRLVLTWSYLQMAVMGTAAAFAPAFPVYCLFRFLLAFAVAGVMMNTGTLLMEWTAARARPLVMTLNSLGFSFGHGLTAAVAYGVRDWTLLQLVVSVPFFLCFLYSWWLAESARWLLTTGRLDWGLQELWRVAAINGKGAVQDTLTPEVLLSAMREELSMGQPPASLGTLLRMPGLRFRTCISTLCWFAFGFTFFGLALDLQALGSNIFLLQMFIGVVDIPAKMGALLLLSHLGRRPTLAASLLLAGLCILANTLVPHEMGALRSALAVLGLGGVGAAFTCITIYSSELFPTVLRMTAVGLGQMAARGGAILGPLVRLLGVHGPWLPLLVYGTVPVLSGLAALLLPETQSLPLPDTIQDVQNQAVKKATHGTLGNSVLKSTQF
Experiment: URAT1 activity assay, h-M29L
Settings: TM1 point mutant, read-out: Verinurad affinity (IC50)
reported-metric: IC50 (nM)
I only need the number, in nM, no unit after it.

Asked: // lookup IC50 for CC(C)(Sc1ccncc1-c1ccc(C#N)c2ccccc12)C(=O)O [Verinurad]
Given back: 11

----------
Molecular target: human OAT1 (Homo sapiens)
Sequence (Q4U2R8 1-550 isoform Q4U2R8-2): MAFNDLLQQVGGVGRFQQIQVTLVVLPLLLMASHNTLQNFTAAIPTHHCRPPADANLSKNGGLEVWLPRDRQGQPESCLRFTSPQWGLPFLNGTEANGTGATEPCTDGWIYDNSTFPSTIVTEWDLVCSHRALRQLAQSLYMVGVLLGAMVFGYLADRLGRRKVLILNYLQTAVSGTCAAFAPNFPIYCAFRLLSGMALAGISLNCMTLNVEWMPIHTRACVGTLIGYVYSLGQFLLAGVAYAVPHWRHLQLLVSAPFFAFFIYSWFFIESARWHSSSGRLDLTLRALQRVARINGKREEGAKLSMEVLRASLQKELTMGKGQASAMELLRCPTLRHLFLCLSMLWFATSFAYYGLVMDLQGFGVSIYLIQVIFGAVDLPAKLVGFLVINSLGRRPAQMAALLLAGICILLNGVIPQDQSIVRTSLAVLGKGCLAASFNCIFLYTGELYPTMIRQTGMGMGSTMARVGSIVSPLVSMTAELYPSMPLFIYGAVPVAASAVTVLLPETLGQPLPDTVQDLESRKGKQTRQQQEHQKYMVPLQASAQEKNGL
Assay: OAT1 activity assay (carboxyfluorescein transport)
Settings: human OAT1 in HEK-293T; 20 µM carboxyfluorescein; read-out: IC50, inhibition of transport activity
reported-metric: IC50 (µM)
Numeric only. Scale: µM

Asked: Could you share which IC50 value was measured for CC(C)(Sc1ccncc1-c1ccc(C#N)c2ccccc12)C(=O)O ?
Given back: 4.6

----------
Biological target: rat URAT1 r-T26V (Rattus norvegicus, UniProt Q3ZAV1, T26V)
Assay: cell-based
reported-metric: pIC50
Kindly note that pIC50 refers to -log10 of the concentration in mol/L and answer with the value alone.

Asked: Report pIC50 for CC(C)(Sc1ccncc1-c1ccc(C#N)c2ccccc12)C(=O)O please.
Given back: 4.41

----------
Target: human URAT1 h-R477K (Homo sapiens, UniProt Q96S37, R477K)
Construct: expressed in transfected cells; host or cells: HEK-293T
Sequence (Q96S37 whole entry R477K): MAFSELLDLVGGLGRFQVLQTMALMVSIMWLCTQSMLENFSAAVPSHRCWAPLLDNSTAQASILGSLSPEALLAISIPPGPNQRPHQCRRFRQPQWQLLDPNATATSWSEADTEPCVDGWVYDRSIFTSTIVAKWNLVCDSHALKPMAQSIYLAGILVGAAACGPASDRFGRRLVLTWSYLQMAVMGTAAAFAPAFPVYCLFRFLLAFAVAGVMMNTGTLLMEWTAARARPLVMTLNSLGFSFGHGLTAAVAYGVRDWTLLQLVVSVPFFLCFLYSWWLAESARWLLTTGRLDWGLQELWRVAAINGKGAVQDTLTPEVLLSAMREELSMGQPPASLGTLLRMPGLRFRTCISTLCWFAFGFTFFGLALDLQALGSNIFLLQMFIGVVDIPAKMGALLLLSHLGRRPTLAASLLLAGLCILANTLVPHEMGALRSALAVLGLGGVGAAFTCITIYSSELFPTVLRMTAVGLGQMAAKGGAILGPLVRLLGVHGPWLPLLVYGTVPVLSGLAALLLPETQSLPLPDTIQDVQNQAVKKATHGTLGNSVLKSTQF
Assay: URAT1 activity assay, h-R477K
Assay type: cell-based
Details: h-R477K binding site point mutant
reported-metric: IC50 (nM)
Could you give me the number in nM? Just the number is fine.

[[record]]
molecule = "O=C1C(CC[S+]([O-])c2ccccc2)C(=O)N(c2ccccc2)N1c1ccccc1 (centres unmarked) [sulfinpyrazone, reference compound]"
quantitative_readout = 2000


Asked: Endpoint output: IC50 of CC(C)(Sc1ccncc1-c1ccc(C#N)c2ccccc12)C(=O)O [Verinurad] . Value?
Given back: 230

----------
Biological target: human URAT1 (Homo sapiens)
Sequence (Q96S37 whole entry): as the sequence (Q96S37 whole entry M29L) above, with L29M counted along it
Experiment: URAT1 activity assay (14C-uric acid transport), human URAT1
Assay type: cell-based
Parameters: host or cells: HEK-293T
Conditions: human URAT1 wild type; read-out: IC50, inhibition of transport activity of human URAT1
reported-metric: pIC50
Here pIC50 is given on a logarithmic scale as minus log10 of the concentration in mol/L.

Asked: Find the recorded pIC50 belonging to CC(C)(Sc1ccncc1-c1ccc(C#N)c2ccccc12)C(=O)O and report it.
Given back: 7.60

----------
Molecular target: rat URAT1 r-T32C (Rattus norvegicus, UniProt Q3ZAV1, T32C)
Sequence (Q3ZAV1 1-553 T32C): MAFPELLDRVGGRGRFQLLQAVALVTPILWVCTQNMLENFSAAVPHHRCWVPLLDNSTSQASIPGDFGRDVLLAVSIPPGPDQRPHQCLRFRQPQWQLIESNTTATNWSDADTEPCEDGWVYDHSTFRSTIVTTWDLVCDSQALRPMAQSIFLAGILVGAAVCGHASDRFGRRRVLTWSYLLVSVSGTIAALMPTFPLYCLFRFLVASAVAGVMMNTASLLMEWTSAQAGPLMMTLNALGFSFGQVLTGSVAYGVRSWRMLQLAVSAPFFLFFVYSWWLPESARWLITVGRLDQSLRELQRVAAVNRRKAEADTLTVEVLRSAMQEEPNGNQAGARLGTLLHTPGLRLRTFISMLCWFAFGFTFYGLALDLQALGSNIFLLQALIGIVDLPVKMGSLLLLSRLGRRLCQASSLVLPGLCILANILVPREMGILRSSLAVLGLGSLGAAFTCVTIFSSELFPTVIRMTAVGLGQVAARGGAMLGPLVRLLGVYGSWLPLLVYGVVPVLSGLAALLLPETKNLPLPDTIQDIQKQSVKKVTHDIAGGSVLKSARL
Assay: URAT1 activity assay, r-T32C
Details: TM1 point mutant, read-out: Verinurad affinity (IC50)
reported-metric: IC50

Asked: IC50 lookup needed for CC(C)(Sc1ccncc1-c1ccc(C#N)c2ccccc12)C(=O)O , thanks.
Given back: 29 µM

----------
Target: rat URAT1 r-L18V (Rattus norvegicus, UniProt Q3ZAV1, L18V)
Test: cell-based
Excerpt: Human URAT1 (GenBank BC053348.1, Homo sapiens SLC22A12), rat URAT1 (NCBI NM_001034943.1, Rattus norvegicus Slc22a12) and human OAT4 (NCBI NM_018484.2, Homo sapiens SLC22A11) genes were purchased from Origene Technologies, Inc. and subcloned into pCMV6/neo using NotI. Where indicated, controls transfections used pCMV6/neo. Mutants were produced by site-directed mutagenesis using the QuikChange Lightning Multi Site-Directed Mutagenesis Kit (Agilent Technologies). […]
reported-metric: IC50 (µM)
Give a bare numeral; the unit µM is implied.

Asked: Which IC50 reading was recorded for the compound CC(C)(Sc1ccncc1-c1ccc(C#N)c2ccccc12)C(=O)O [Verinurad] ?
Given back: 40

----------
Target: human URAT1 h-S27P (Homo sapiens, UniProt Q96S37, S27P)
Sequence (Q96S37 whole entry S27P): as the sequence (Q96S37 whole entry M29L) above, with S27P, L29M counted along it
Experiment: URAT1 activity assay, h-S27P
Settings: h-S27P, TM1 point mutant; read-out: Verinurad affinity (IC50)
reported-metric: IC50 (nM)
Provide the reading as a plain figure in nM.

Asked: So what does the record say about IC50 for CC(C)(Sc1ccncc1-c1ccc(C#N)c2ccccc12)C(=O)O ?
Given back: 39

----------
Target: human OAT4 (Homo sapiens)
Sequence (Q9NSA0 whole entry): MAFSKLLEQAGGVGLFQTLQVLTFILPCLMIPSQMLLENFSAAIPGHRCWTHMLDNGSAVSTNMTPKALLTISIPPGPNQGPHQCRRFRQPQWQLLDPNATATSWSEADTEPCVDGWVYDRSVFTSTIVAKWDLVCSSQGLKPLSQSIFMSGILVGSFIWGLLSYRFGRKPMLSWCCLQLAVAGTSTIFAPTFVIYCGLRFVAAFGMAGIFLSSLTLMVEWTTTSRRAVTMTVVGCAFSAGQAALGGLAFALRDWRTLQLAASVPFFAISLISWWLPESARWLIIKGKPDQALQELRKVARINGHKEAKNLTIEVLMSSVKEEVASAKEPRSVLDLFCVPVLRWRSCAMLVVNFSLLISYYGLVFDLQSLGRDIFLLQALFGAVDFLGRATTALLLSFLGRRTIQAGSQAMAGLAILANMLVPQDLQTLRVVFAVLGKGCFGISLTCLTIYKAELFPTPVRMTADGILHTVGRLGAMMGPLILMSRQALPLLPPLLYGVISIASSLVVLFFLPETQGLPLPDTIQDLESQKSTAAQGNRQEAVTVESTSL
Assay: OAT4 activity assay (carboxyfluorescein transport)
Details: human OAT4 in HEK-293T; 20 µM carboxyfluorescein; read-out: IC50, inhibition of transport activity
reported-metric: pIC50
Quick note: pIC50 means taking -log10 of the concentration in moles per liter.

Asked: Returns the measured pIC50 for the input molecule. Input: CC(C)(Sc1ccncc1-c1ccc(C#N)c2ccccc12)C(=O)O
Given back: 5.23
